Reported pIC50 values, Acetylcholinesterase (Electrophorus electricus).
pIC50: −log10 of the molar value.

>  <structure_notation>
Cl.Oc1cccc2ccc(/C=C/C3=CCN(Cc4ccccc4C(F)(F)F)CC3)nc12

>  <pIC50>
6.96

$$$$
>  <structure_notation>
Oc1c(Cl)cc(Cl)c2ccc(/C=C/C3=CCN(Cc4ccccc4Br)CC3)nc12

>  <pIC50>
6.27

$$$$
>  <structure_notation>
Cc1cccc(CN2CC=C(/C=C/c3ccc4cccc(O)c4n3)CC2)c1

>  <pIC50>
6.37

$$$$
>  <structure_notation>
Oc1c(Cl)cc(Cl)c2ccc(/C=C/C3=CCN(Cc4cccc(Cl)c4)CC3)nc12

>  <pIC50>
6.48

$$$$
>  <structure_notation>
Oc1cccc2ccc(/C=C/C3=CCN(Cc4cccc(Br)c4)CC3)nc12

>  <pIC50>
5.82

$$$$

* * *

# assayed_system: Acetylcholinesterase (Homo sapiens)
# Sequence (P22303 whole entry): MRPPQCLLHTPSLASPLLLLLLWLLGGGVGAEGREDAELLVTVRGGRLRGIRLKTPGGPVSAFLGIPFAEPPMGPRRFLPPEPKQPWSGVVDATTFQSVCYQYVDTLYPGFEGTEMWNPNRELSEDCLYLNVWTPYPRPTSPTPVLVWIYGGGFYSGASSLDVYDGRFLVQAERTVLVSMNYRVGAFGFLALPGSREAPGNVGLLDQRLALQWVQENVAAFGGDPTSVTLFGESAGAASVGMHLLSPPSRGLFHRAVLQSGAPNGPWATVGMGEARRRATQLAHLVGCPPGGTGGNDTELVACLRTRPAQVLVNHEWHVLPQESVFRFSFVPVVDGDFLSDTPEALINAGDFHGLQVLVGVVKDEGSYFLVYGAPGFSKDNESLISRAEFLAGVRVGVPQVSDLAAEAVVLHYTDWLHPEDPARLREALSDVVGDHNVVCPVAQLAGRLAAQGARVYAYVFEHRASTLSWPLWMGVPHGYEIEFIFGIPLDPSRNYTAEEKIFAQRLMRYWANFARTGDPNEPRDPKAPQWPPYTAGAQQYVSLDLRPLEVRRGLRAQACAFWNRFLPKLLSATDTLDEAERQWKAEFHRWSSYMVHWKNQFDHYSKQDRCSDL
# method_summary: Inhibition of AChE in human SH-SY5Ycells assessed as reduction AChE activity using acetylthiocholine as substrate incubated for 24 hrs by DTNB based Ellman's method

>  <structure_notation>
Cl.Oc1cccc2ccc(/C=C/C3=CCN(Cc4ccccc4C(F)(F)F)CC3)nc12

>  <assayed_system>
Acetylcholinesterase (Homo sapiens)

>  <IC50, µM>
161

$$$$

* * *

# method_summary: in vivo
# measurement_conditions: ICR, mouse, po
# Description: Acute toxicity in ICR mouse assessed as lethality at 21.30 to 52 mg/kg, po and measured upto 14 days

>  <compound>
COc1cc2c(cc1OC)C(=O)C(CC1CCN(Cc3ccccc3)CC1)C2 (stereo unspecified) [DONEPEZIL]

>  <unit_annotation>
mg/kg

>  <LD50 at 336 h>
28.1

$$$$

* * *

# assayed_system: UniProt:O42275
Measured IC50 by item

>  <structure_notation>
Oc1cccc2ccc(/C=C/C3=CCN(Cc4ccccc4)CC3)nc12

>  <IC50, nM>
1110

$$$$
>  <structure_notation>
Oc1c(Cl)cc(Cl)c2ccc(/C=C/C3=CCN(Cc4cccc(Br)c4)CC3)nc12

>  <IC50, nM>
320

$$$$
>  <structure_notation>
Oc1c(Cl)cc(Cl)c2ccc(/C=C/C3=CCN(Cc4ccccc4F)CC3)nc12

>  <IC50, nM>
290

$$$$
>  <structure_notation>
Oc1c(Cl)cc(Cl)c2ccc(/C=C/C3=CCN(Cc4cccc(F)c4)CC3)nc12

>  <IC50, nM>
520

$$$$
>  <structure_notation>
Oc1c(Cl)cc(Cl)c2ccc(/C=C/C3=CCN(Cc4ccc(Cl)cc4)CC3)nc12

>  <IC50, nM>
620

$$$$
>  <structure_notation>
Oc1cccc2ccc(/C=C/C3=CCN(Cc4ccccc4Cl)CC3)nc12

>  <IC50, nM>
1290

$$$$
>  <structure_notation>
Oc1c(Cl)cc(Cl)c2ccc(/C=C/C3=CCN(Cc4ccc(F)cc4)CC3)nc12

>  <IC50, nM>
270

$$$$

* * *

Reported pIC50 values, Acetylcholinesterase (Electrophorus electricus, UniProt O42275).
pIC50: −log10 of the molar value.

>  <structure_notation>
Oc1c(Cl)cc(Cl)c2ccc(/C=C/C3=CCN(Cc4ccc(Br)cc4)CC3)nc12

>  <assayed_system>
Acetylcholinesterase (Electrophorus electricus, UniProt O42275)
Sequence (O42275 whole entry): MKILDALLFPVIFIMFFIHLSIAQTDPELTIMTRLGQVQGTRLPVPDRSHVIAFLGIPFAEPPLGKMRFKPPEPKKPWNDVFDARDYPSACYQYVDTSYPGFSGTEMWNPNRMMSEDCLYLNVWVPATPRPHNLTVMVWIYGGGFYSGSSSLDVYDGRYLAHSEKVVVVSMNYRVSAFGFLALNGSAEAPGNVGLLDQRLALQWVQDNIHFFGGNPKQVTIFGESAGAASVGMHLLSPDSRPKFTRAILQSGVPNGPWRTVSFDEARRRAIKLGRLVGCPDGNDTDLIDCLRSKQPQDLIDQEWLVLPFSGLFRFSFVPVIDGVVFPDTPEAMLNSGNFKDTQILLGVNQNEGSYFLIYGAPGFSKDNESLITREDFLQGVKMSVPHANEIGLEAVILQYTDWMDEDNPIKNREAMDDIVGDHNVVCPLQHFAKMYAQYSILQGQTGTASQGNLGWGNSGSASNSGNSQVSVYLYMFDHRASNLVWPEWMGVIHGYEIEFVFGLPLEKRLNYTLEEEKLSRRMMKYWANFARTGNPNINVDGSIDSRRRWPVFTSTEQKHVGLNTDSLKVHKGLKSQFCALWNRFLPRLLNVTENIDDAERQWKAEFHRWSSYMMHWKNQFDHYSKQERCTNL

>  <pIC50>
6.19

$$$$
>  <structure_notation>
Oc1cccc2ccc(/C=C/C3=CCN(Cc4ccc(F)cc4)CC3)nc12

>  <assayed_system>
Acetylcholinesterase (Electrophorus electricus, UniProt O42275)

>  <pIC50>
5.78

$$$$
>  <structure_notation>
Oc1cccc2ccc(/C=C/C3=CCN(Cc4ccc(C(F)(F)F)cc4)CC3)nc12

>  <assayed_system>
Acetylcholinesterase (Electrophorus electricus, UniProt O42275)

>  <pIC50>
6.49

$$$$
>  <structure_notation>
Oc1cccc2ccc(/C=C/C3=CCN(Cc4cccc(F)c4)CC3)nc12

>  <assayed_system>
Acetylcholinesterase (Electrophorus electricus, UniProt O42275)

>  <pIC50>
6.14

$$$$
>  <structure_notation>
Oc1c(Cl)cc(Cl)c2ccc(/C=C/C3=CCN(Cc4ccccc4)CC3)nc12

>  <assayed_system>
Acetylcholinesterase (Electrophorus electricus, UniProt O42275)

>  <pIC50>
5.64

$$$$
>  <structure_notation>
Cc1ccc(CN2CC=C(/C=C/c3ccc4cccc(O)c4n3)CC2)cc1

>  <assayed_system>
Acetylcholinesterase (Electrophorus electricus, UniProt O42275)

>  <pIC50>
6.59

$$$$
>  <structure_notation>
Cc1ccc(CN2CC=C(/C=C/c3ccc4c(Cl)cc(Cl)c(O)c4n3)CC2)cc1

>  <assayed_system>
Acetylcholinesterase (Electrophorus electricus, UniProt O42275)

>  <pIC50>
6.27

$$$$
>  <structure_notation>
Cc1ccccc1CN1CC=C(/C=C/c2ccc3c(Cl)cc(Cl)c(O)c3n2)CC1

>  <assayed_system>
Acetylcholinesterase (Electrophorus electricus, UniProt O42275)

>  <pIC50>
6.25

$$$$
>  <structure_notation>
Oc1cccc2ccc(/C=C/C3=CCN(Cc4ccc(Br)cc4)CC3)nc12

>  <assayed_system>
Acetylcholinesterase (Electrophorus electricus, UniProt O42275)

>  <pIC50>
6.59

$$$$
>  <structure_notation>
Oc1cccc2ccc(/C=C/C3=CCN(Cc4ccc(Cl)cc4)CC3)nc12

>  <assayed_system>
Acetylcholinesterase (Electrophorus electricus, UniProt O42275)

>  <pIC50>
5.52

$$$$
